Entries and their measured pest or weed control at 1000 g/ha follow.
- Tested on: Ipomoea hederaceae (IPOHE)
- test_method_notes: Pre-emergence biological efficacy, glasshouse, 1000 g/ha, evaluated after 13 days (100=total damage to plant; 0=no damage to plant)
- Format: in vivo
- measurement_setup: Ipomoea, 312 h, rate 1,000 g/ha, read-out: Percentage damage caused to weed species, pre-emergence, IPOHE
Record the value in %, omitting the unit from your answer.

Look over these answered cases.
**Q:** May I ask what pest or weed control at 1000 g/ha has been recorded for COc1c(Cl)ccc(-c2nc(C(=O)O)c3c(C)cn(C(C)c4ccccc4)c3n2)c1F (stereo not drawn) ?
**A:** 0

**Q:** Now consider COC(=O)c1nc(Cl)cc2[nH]ccc12 .
**A:** 0

**Q:** Subsequent entry: O=C(O)c1nc(C2CC2)nc2c1ccn2Cc1ccccc1[N+](=O)[O-]
**A:** 0

**Q:** COC(=O)c1nc(Cl)cc2[nH]cc(C)c12 ?
**A:** 100

**Q:** Then this compound: COC(=O)c1nc(-c2ccc(Cl)c(OC)c2F)nc2c1c(C)cn2Cc1ccccc1
**A:** 30

More entries:
**Q:** // lookup pest or weed control at 1000 g/ha for COC(=O)c1nc(Cl)cc2[nH]cc(Cl)c12
**A:** 40

**Q:** Cool, now COc1c(Cl)ccc(-c2nc(C(=O)O)c3cc(C)n(Cc4ccccc4)c3n2)c1F
**A:** 0

**Q:** Thanks! And COC(=O)c1nc(-c2ccc(Cl)c(OC)c2F)nc2c1N(C(C)C)CCN2C(C)C ?
**A:** 0

**Q:** And for COC(=O)c1nc(-c2ccc(Cl)c(OC)c2F)cc2c1ccn2Cc1ccco1 ?
**A:** 20

* * *

- Test system: Echinochloa crus-galli (ECHCG)
- test_method_notes: Pre-emergence biological efficacy, glasshouse, 1000 g/ha, evaluated after 13 days (100=total damage to plant; 0=no damage to plant)
- Type: in vivo
- measurement_setup: Echinochloa crus-galli, 312 h, rate 1,000 g/ha, read-out: Percentage damage caused to weed species, pre-emergence, ECHCG
- Method: Seeds of Alopecurus myosuroides (ALOMY), Setaria faberi (SETFA), Echinochloa crus-galli (ECHCG), Solanum nigrum (SOLNI), Amaranthus retroflexus (AMARE) and Ipomoea hederaceae (IPOHE) were sown in standard soil in pots. […] The test plants were then grown under controlled conditions in the glasshouse (at 24/16° C., day/night; 14 hours light; 65% humidity) and watered twice daily. […]
measurement_kind: pest or weed control at 1000 g/ha (%)
// note: answer is a bare numeric in %

**Q:** Request the reported pest or weed control at 1000 g/ha associated with Cc1cc2c(C(=O)O)nc(C3CC3)nc2n1Cc1ccccc1[N+](=O)[O-] [Compound 8-5]
**A:** 0

**Q:** Follow-up entry: COC(=O)c1nc(-c2ccc(Cl)c(OC)c2F)nc2c1c(C)cn2C [Compound 2-64]
**A:** 0

**Q:** Similarly, COC(=O)c1nc(-c2ccc(Cl)c(OC)c2F)nc2c1NCCN2Cc1ccccc1 [Compound 95-162] ?
**A:** 0

**Q:** And then Cc1cc2c(C(=O)O)nc(-c3ccc(Cl)c(F)c3)nc2n1Cc1ccco1 [Compound 11-21] , what is it?
**A:** 0

Data credit: patent US20120202690A1
